Hello, the source for this data is patent US20110262445A1, in case you need it.

# testedTarget: T1, human IL-12 (human, UniProt P29460 23-328; P29459 23-219)
# T1 construct: Recombinant (Peprotech); FLAG-tagged IL-12 in the flow cytometry assays, biotinylated in the IL-12Rβ2 assay; also called hIL-12
# T1 sequence 1: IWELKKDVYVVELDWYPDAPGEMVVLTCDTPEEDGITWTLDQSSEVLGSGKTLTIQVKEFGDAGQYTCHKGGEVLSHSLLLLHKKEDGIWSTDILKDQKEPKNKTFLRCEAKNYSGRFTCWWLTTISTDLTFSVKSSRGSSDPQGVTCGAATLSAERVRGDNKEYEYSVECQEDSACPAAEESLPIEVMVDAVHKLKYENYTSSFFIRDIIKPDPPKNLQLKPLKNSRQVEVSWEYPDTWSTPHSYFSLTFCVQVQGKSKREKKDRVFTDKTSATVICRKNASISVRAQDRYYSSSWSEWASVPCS
# T1 sequence 2: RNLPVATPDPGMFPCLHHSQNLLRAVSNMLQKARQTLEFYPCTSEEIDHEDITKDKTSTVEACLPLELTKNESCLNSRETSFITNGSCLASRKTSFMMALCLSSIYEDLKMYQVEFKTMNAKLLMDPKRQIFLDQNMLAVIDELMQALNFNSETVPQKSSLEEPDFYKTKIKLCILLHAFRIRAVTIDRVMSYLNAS
# experimentNotes: SPR, IgG on Protein A
measuredParameter: koff (s⁻¹)
Kindly answer with a numeric value in s⁻¹, unit omitted.

binder | measuredParameter | measValue
Antibody 7 (antibody, human IgG1, kappa, V domains shown, Antibody 1 with heavy chain C95N) VH: EVQLQQSGADLVRSGASIKLSCTASGFNIKDYYMHWVKQRPEQGLEWIGWIDPENGDTEYAPKFQGKATMTADTSSNTAYLQLSSLTSEDTAVYYCNANKELRYFDVWGAGTTVTVSS VL: DIVLTQSPATLSVTPGDSVSLSCRASQSISINLHWYQQKSHESPRLLIKFASQSISGIPSRFSGYGSGTDFTLSINSVETEDFGRYFCQQSNSWPLTFGAGTKLELKR | koff | 0.000167
Antibody 1 (antibody, human IgG1, kappa, V domains shown, Chimeric PMA204, human IgG1/kappa) VH: EVQLQQSGADLVRSGASIKLSCTASGFNIKDYYMHWVKQRPEQGLEWIGWIDPENGDTEYAPKFQGKATMTADTSSNTAYLQLSSLTSEDTAVYYCNACKELRYFDVWGAGTTVTVSS VL: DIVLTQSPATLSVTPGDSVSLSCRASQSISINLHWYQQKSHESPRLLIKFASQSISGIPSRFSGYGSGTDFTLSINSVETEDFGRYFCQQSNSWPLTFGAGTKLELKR | koff | 0.000132

Prompt: Report measured koff; entry is Antibody 4 (antibody, human IgG1, kappa, V domains shown, Antibody 1 with heavy chain M34L) VH: EVQLQQSGADLVRSGASIKLSCTASGFNIKDYYLHWVKQRPEQGLEWIGWIDPENGDTEYAPKFQGKATMTADTSSNTAYLQLSSLTSEDTAVYYCNACKELRYFDVWGAGTTVTVSS VL: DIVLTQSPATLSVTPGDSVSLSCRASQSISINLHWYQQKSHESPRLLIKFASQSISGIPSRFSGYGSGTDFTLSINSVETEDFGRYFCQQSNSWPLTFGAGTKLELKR
Completion: 0.000204

Prompt: Report measured koff; entry is Antibody 3 (antibody, human IgG1, kappa, V domains shown, Antibody 1 with light chain W94F) VH: EVQLQQSGADLVRSGASIKLSCTASGFNIKDYYMHWVKQRPEQGLEWIGWIDPENGDTEYAPKFQGKATMTADTSSNTAYLQLSSLTSEDTAVYYCNACKELRYFDVWGAGTTVTVSS VL: DIVLTQSPATLSVTPGDSVSLSCRASQSISINLHWYQQKSHESPRLLIKFASQSISGIPSRFSGYGSGTDFTLSINSVETEDFGRYFCQQSNSFPLTFGAGTKLELKR
Completion: 9.39e-05
